Tested on: MDR1-MDCK cell monolayers
EXPERIMENT DESCRIPTION: MDCK-MDR1 permeability assay (BBB penetration potential)
Format: in vitro ADME
CONDITIONS: 5 μM, 120 minutes, pH 7.4
Response field label: string, one of Met (MDCK-MDR1: % Recov B-A strictly below 80%) or Not met.

// below: answered molecules
MOLECULE | CLASS NAME
CN(c1nnc(-c2ccc(-c3ccn(C)c(=O)c3)cc2O)s1)[C@@H]1C[C@H]2CC[C@H](N2)[C@@H]1F (single isomer, unassigned) | Not met
CN(c1nnc(-c2ccc(-c3cnn(CF)c3)cc2O)s1)[C@@H]1C[C@H]2CC[C@H](N2)[C@@H]1F (single isomer, unassigned) [Compound E-10B] | Met
CN(c1nnc(-c2cc(F)c(-c3cn[nH]c3)cc2O)s1)[C@H]1C[C@@H]2CC[C@@H](N2)[C@H]1F (single isomer, unassigned) | Met
CN(c1nnc(-c2ccc(-c3ccn(CF)c(=O)c3)cc2O)s1)[C@@H]1C[C@H]2CC[C@H](N2)[C@@H]1F (single isomer, unassigned) [Compound E-15A] | Not met

Ask: Say whether its MDCK-MDR1: % Recov B-A is strictly beneath 80%. Entry: `COc1cc(-c2ccc(-c3nnc(N(C4CC4)[C@@H]4C[C@H]5CC[C@H](N5)[C@@H]4F)s3)c(O)c2)cc(F)n1`
Reply: Met

Ask: Say whether its MDCK-MDR1: % Recov B-A is strictly beneath 80%. Entry: COc1cc(-c2ccc(-c3nnc(N(C)[C@H]4C[C@@H]5CC[C@@H](N5)[C@H]4F)s3)c(O)c2)ncn1 (single isomer, unassigned)
Reply: Met

Ask: Say whether its MDCK-MDR1: % Recov B-A is strictly beneath 80%. Entry: CN(c1nnc(-c2ccc(-c3cn[nH]c3)cc2O)s1)[C@@H]1C[C@H]2CC[C@@H]([C@@H]1F)N2C (single isomer, unassigned) [Compound E-23B]
Reply: Not met

Ask: Say whether its MDCK-MDR1: % Recov B-A is strictly beneath 80%. Entry: CN(c1nnc(-c2ccc(-c3cnn(C)c3)cc2O)s1)[C@@H]1C[C@H]2CC[C@@H]([C@@H]1F)N2C (single isomer, unassigned) [Compound E-25B]
Reply: Not met

Ask: Say whether its MDCK-MDR1: % Recov B-A is strictly beneath 80%. Entry: CN(c1nnc(-c2ccc(-c3cc(=O)n(C)cn3)cc2O)s1)[C@@H]1C[C@H]2CC[C@H](N2)[C@@H]1F (single isomer, unassigned)
Reply: Not met

Ask: Say whether its MDCK-MDR1: % Recov B-A is strictly beneath 80%. Entry: `CN(c1nnc(-c2ccc(-c3cnn(C)c3)cc2O)s1)[C@H]1C[C@@H]2CC[C@@H](N2)[C@H]1F`
Reply: Not met

###

Would you kindly list efflux ratio at 120 min, 5 μM for each of these compounds?
Test system: MDR1
EXPERIMENT DESCRIPTION: MDCK-MDR1 permeability assay (BBB penetration potential)
Assay type: in vitro ADME
CONDITIONS: dog, MDCK-MDR1, pH 7.4, Papp (B-to-A)/Papp (A-to-B); 5 μM, 120 minutes; separated enantiomers, told apart by chiral retention time; read-out: MDCK MDRP1 Efflux Ratio
Description: Each determination is performed in duplicate. […] Analytical conditions are outlined below. Papp=(dCr/dt)×Vr/(A×CA) (1)

COMPOUND | STUDY SYSTEM | efflux ratio at 120 min, 5 μM
CN(c1nnc(-c2ccc(-c3ccn(CF)c(=O)c3)cc2O)s1)[C@@H]1C[C@H]2CC[C@H](N2)[C@@H]1F (racemic) [15A/15B] | MDR1 | 40
CN(c1nnc(-c2ccc(-c3ccn(C)c(=O)c3)cc2O)s1)[C@@H]1C[C@H]2CC[C@H](N2)[C@@H]1F (racemic) | MDR1 | 54

Ask: Reported efflux ratio at 120 min, 5 μM, compound COc1cc(-c2ccc(-c3nnc(N(C)[C@@H]4C[C@H]5CC[C@H](N5)[C@@H]4F)s3)c(O)c2)ccn1 (racemic) [11A/11B] : ____
Reply: 2

###

Test system: MDR1
EXPERIMENT DESCRIPTION: MDCK-MDR1 permeability assay (BBB penetration potential)
Type: in vitro ADME
CONDITIONS: dog, MDCK-MDR1, pH 7.4; Papp (B-to-A)/Papp (A-to-B); read-out: MDCK-MDR1: Efflux
Would you kindly list efflux ratio at 120 min, 5 μM for each of these compounds?
Numbers only.

Recorded efflux ratio at 120 min, 5 μM, per entry:
COMPOUND | efflux ratio at 120 min, 5 μM
CN(c1nnc(-c2ccc(-c3cnn(C)c3)cc2O)s1)[C@@H]1C[C@H]2CC[C@@H]([C@@H]1F)N2C (single isomer, unassigned) [Compound E-25B] | 3
CN(c1nnc(-c2cc(F)c(-c3cn[nH]c3)cc2O)s1)[C@H]1C[C@@H]2CC[C@@H](N2)[C@H]1F (single isomer, unassigned) | 12
CN(c1nnc(-c2ccc(-c3cn[nH]c3)cc2O)s1)[C@@H]1C[C@H]2CC[C@@H]([C@@H]1F)N2C (single isomer, unassigned) [Compound E-23B] | 7

Please give efflux ratio at 120 min, 5 μM for each item listed below.
1. COc1cc(-c2ccc(-c3nnc(N(C4CC4)[C@@H]4C[C@H]5CC[C@H](N5)[C@@H]4F)s3)c(O)c2)cc(F)n1
2. CN(c1nnc(-c2ccc(-c3cc(=O)n(C)cn3)cc2O)s1)[C@@H]1C[C@H]2CC[C@H](N2)[C@@H]1F (single isomer, unassigned)
3. CN(c1nnc(-c2ccc(-c3cnn(CF)c3)cc2O)s1)[C@H]1C[C@@H]2CC[C@@H](N2)[C@H]1F (single isomer, unassigned) [Compound E-10A]
4. CN(c1nnc(-c2ccc(-c3ccn(CF)c(=O)c3)cc2O)s1)[C@@H]1C[C@H]2CC[C@H](N2)[C@@H]1F (single isomer, unassigned) [Compound E-15A]

Reply:
1: 6; 2: 21; 3: 6; 4: 40

###

System: MDR1-MDCK cell monolayers
EXPERIMENT DESCRIPTION: MDCK-MDR1 permeability assay (BBB penetration potential)
Format: in vitro ADME
CONDITIONS: 5 μM, 120 minutes, pH 7.4
Would you kindly list MDCK-MDR1: % Recov A-B for each of these compounds?
State the value, then name its unit.

Recorded MDCK-MDR1: % Recov A-B, per entry:
COMPOUND | RESULT TYPE | RESULT
CN(c1nnc(-c2ccc(-c3cc(=O)n(C)cn3)cc2O)s1)[C@@H]1C[C@H]2CC[C@H](N2)[C@@H]1F (single isomer, unassigned) [Compound E-8A] | MDCK-MDR1: % Recov A-B | 116%
CN(c1nnc(-c2ccc(-c3ccn(C)c(=O)c3)cc2O)s1)[C@H]1C[C@@H]2CC[C@@H](N2)[C@H]1F (single isomer, unassigned) [Compound E-4B] | MDCK-MDR1: % Recov A-B | 115%
CN(c1nnc(-c2ccc(-c3ccn(CF)c(=O)c3)cc2O)s1)[C@H]1C[C@@H]2CC[C@@H](N2)[C@H]1F (single isomer, unassigned) [Compound E-15B] | MDCK-MDR1: % Recov A-B | 88%
CN(c1nnc(-c2ccc(-c3cn[nH]c3)cc2O)s1)[C@@H]1C[C@H]2CC[C@H](N2)[C@@H]1F (single isomer, unassigned) [Compound E-7B] | MDCK-MDR1: % Recov A-B | 79%

Please give MDCK-MDR1: % Recov A-B for each item listed below.
1. CN(c1nnc(-c2cc(F)c(-c3cn[nH]c3)cc2O)s1)[C@H]1C[C@@H]2CC[C@H]([C@H]1F)N2C (single isomer, unassigned) [Compound E-24A]
2. CN(c1nnc(-c2ccc(-c3cnn(C)c3)cc2O)s1)[C@@H]1C[C@H]2CC[C@@H]([C@@H]1F)N2C (single isomer, unassigned) [Compound E-25B]

Reply:
["57%", "67%"]

Please give MDCK-MDR1: % Recov A-B for each item listed below.
1. CN(c1nnc(-c2ccc(-c3cc(=O)n(C)cn3)cc2O)s1)[C@H]1C[C@@H]2CC[C@@H](N2)[C@H]1F (single isomer, unassigned) [Compound E-8B]
2. CN(c1nnc(-c2cc(F)c(-c3cnn(C)c3)cc2O)s1)[C@H]1C[C@@H]2CC[C@@H](N2)[C@H]1F (single isomer, unassigned) [Compound E-9A]

Reply:
["67%", "51%"]

Please give MDCK-MDR1: % Recov A-B for each item listed below.
1. CN(c1nnc(-c2cc(F)c(-c3cn[nH]c3)cc2O)s1)[C@@H]1C[C@H]2CC[C@@H]([C@@H]1F)N2C (single isomer, unassigned) [Compound E-24B]
2. COc1cc(-c2ccc(-c3nnc(N(C)[C@@H]4C[C@H]5CC[C@H](N5)[C@@H]4F)s3)c(O)c2)ncn1 (single isomer, unassigned) [Compound E-5A]
3. CN(c1nnc(-c2ccc(-c3cnn(CF)c3)cc2O)s1)[C@@H]1C[C@H]2CC[C@H](N2)[C@@H]1F (single isomer, unassigned) [Compound E-10B]

Reply:
["59%", "41%", "72%"]
